# tested-target: panel of more than 300 wild-type and mutant kinases (313 kinase panel) (Homo sapiens, UniProt Q9UF33)
# Sequence (Q9UF33 23-1036, change not shown): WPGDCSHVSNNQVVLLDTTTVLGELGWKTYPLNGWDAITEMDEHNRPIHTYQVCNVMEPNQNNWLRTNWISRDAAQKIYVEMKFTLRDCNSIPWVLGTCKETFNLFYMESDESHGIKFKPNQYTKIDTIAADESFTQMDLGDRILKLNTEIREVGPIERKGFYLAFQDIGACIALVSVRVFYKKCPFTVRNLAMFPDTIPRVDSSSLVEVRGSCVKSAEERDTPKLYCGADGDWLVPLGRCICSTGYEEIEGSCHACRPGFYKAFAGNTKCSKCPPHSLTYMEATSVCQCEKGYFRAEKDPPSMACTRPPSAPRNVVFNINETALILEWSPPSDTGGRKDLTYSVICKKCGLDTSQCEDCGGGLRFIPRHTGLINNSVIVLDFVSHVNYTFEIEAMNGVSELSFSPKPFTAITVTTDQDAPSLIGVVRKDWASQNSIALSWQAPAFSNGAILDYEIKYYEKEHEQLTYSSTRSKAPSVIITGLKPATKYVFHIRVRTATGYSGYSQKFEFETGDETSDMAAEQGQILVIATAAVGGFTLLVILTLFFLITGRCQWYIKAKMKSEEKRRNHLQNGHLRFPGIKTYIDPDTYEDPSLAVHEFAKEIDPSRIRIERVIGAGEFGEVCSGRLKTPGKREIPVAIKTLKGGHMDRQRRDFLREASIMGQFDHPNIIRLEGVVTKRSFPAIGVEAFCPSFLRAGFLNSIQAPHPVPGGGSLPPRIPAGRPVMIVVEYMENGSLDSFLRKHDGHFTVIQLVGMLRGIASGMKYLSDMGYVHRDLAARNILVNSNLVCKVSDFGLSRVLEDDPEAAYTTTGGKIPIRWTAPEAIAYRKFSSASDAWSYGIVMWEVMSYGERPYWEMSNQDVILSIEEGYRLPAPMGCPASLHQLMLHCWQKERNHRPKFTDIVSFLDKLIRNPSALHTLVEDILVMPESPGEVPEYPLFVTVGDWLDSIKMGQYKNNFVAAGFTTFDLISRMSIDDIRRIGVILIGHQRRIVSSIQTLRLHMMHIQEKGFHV
# test-summary: Kinase profiling in a biochemical assay panel (mobility shift assays and ELISA), %-inhibition at 1 μM; selectivity entropy
# condition-notes: kinase EPHA6; compound at 1 μM
%-inhibition of EPHA6 of 30% or higher: MET. Under 30%: NOT MET.

Worked cases, answers included:
Entry Cc1ccc(Nc2nccc(N(C)c3ccc4c(C)n(C)nc4c3)n2)cc1S(N)(=O)=O [pazopanib] : is its %-inhibition of EPHA6 no less than 30%? NOT MET

I'd appreciate it if you could say whether COc1cc2nccc(Oc3ccc(NC(=O)C4(C(=O)Nc5ccc(F)cc5)CC4)cc3)c2cc1OC [cabozantinib] has %-inhibition of EPHA6 at least equal to 30%. MET

Would you say CNC(=O)c1cc(Oc2ccc(NC(=O)Nc3ccc(Cl)c(C(F)(F)F)c3)c(F)c2)ccn1 [regorafenib] shows %-inhibition of EPHA6 at minimum 30%? MET

New cases:
%-inhibition of EPHA6 >= 30% for N#CC[C@H](C1CCCC1)n1cc(-c2ncnc3[nH]ccc23)cn1 [ruxolitinib] ? NOT MET

Exam item: decide whether the reported %-inhibition of EPHA6 for CO[C@H]1C[C@@H]2CC[C@@H](C)[C@@](O)(O2)C(=O)C(=O)N2CCCC[C@H]2C(=O)O[C@H]([C@H](C)C[C@@H]2CC[C@@H](OCCO)[C@H](OC)C2)CC(=O)[C@H](C)/C=C(\C)[C@@H](O)[C@@H](OC)C(=O)[C@H](C)C[C@H](C)/C=C/C=C/C=C/1C [everolimus] is at least 30%. NOT MET

Determine whether measured %-inhibition of EPHA6 meets or exceeds 30% for COc1cc(Nc2c(C#N)cnc3cc(OCCCN4CCN(C)CC4)c(OC)cc23)c(Cl)cc1Cl [bosutinib] MET

Evaluate O=S(=O)(c1cccc2cnccc12)N1CCCNCC1 [fasudil] : %-inhibition of EPHA6 at minimum 30%? NOT MET

* * *

# %-inhibition, CK1ε listing for each entry below
# tested-target: panel of more than 300 wild-type and mutant kinases (313 kinase panel) (Homo sapiens, UniProt P49674)
# test-summary: Kinase profiling in a biochemical assay panel (mobility shift assays and ELISA), %-inhibition at 1 μM; selectivity entropy
# condition-notes: kinase CK1ε; 1 μM compound
Your answer should be a plain number; it is taken to be in %.

Examples from the recorded data:
Given the entry C[C@@H](Oc1cc(-c2cnn(C3CCNCC3)c2)cnc1N)c1c(Cl)ccc(F)c1Cl [crizotinib] , report its measured %-inhibition, CK1ε. 4

Look at this compound and give its reported %-inhibition, CK1ε. CC(=O)Nc1cccc(-n2c(=O)n(C3CC3)c(=O)c3c(Nc4ccc(I)cc4F)n(C)c(=O)c(C)c32)c1 [trametinib] -5.38

Tell me the measured %-inhibition, CK1ε of CO[C@H]1C[C@@H]2CC[C@@H](C)[C@@](O)(O2)C(=O)C(=O)N2CCCC[C@H]2C(=O)O[C@H]([C@H](C)C[C@@H]2CC[C@@H](OCCO)[C@H](OC)C2)CC(=O)[C@H](C)/C=C(\C)[C@@H](O)[C@@H](OC)C(=O)[C@H](C)C[C@H](C)/C=C/C=C/C=C/1C [everolimus] , please. -6.43

More entries:
Name the reported %-inhibition, CK1ε value associated with the compound CCCS(=O)(=O)Nc1ccc(F)c(C(=O)c2c[nH]c3ncc(-c4ccc(Cl)cc4)cc23)c1F [vemurafenib] 2.46

Any idea what its %-inhibition, CK1ε is? The compound is CO[C@H]1C[C@@H]2CC[C@@H](C)[C@@](O)(O2)C(=O)C(=O)N2CCCC[C@H]2C(=O)O[C@H]([C@H](C)C[C@@H]2CC[C@@H](OC(=O)C(C)(CO)CO)[C@H](OC)C2)CC(=O)[C@H](C)/C=C(\C)[C@@H](O)[C@@H](OC)C(=O)[C@H](C)C[C@H](C)/C=C/C=C/C=C/1C [temsirolimus] -7
